// read-out pKi, gathered for Hrh3 protein (Rattus norvegicus) from published studies
pKi: −log10 of the molar value.

[
  {
    "Molecule": "C(#CCCC1CCCCC1)CCc1c[nH]cn1",
    "Value Operator": "=",
    "pKi": 8.54
  },
  {
    "Molecule": "CN(C)CCC(c1ccc(Cl)cc1)c1ccccn1 (centres undefined)",
    "Value Operator": "<",
    "pKi": 5.00
  },
  {
    "Molecule": "NC(Cc1c[nH]cn1)C(=O)O (centres undefined)",
    "Value Operator": "<",
    "pKi": 5.00
  },
  {
    "Molecule": "c1ncc(CCCCCCC2CCCCC2)[nH]1",
    "Value Operator": "=",
    "pKi": 7.12
  },
  {
    "Molecule": "CC(CN(C)C)CN1c2ccccc2Sc2ccc(C#N)cc21 (centres undefined)",
    "Value Operator": "<",
    "pKi": 5.00
  },
  {
    "Molecule": "O=C(CCCC1CCCCC1)NCCc1cnc[nH]1",
    "Value Operator": "=",
    "pKi": 7.80
  },
  {
    "Molecule": "CNC(=NCCSCc1csc(N=C(N)N)n1)NC#N",
    "Value Operator": "<",
    "pKi": 5.00
  },
  {
    "Molecule": "CC(C)(C)CCC#CCCc1c[nH]cn1",
    "Value Operator": "=",
    "pKi": 9.08
  },
  {
    "Molecule": "N[C@H](C=CCCc1cnc[nH]1)CC1CCCCC1",
    "Value Operator": "=",
    "pKi": 9.00
  },
  {
    "Molecule": "Cc1[nH]cnc1CSCCNC(=N)NCCCc1c[nH]cn1",
    "Value Operator": "=",
    "pKi": 7.34
  },
  {
    "Molecule": "CNC(=S)NCCCCc1cnc[nH]1",
    "Value Operator": "=",
    "pKi": 7.20
  },
  {
    "Molecule": "O=C(CCCCC1CCCCC1)N1CCC(c2c[nH]cn2)CC1",
    "Value Operator": "=",
    "pKi": 7.59
  },
  {
    "Molecule": "CN/C([CH-][N+](=O)[O-])=[NH+]\\CCSCc1ccc(CN(C)C)o1",
    "Value Operator": "<",
    "pKi": 5.00
  },
  {
    "Molecule": "c1cc(OCCCN2CCCCC2)ccc1CN1CCCCC1",
    "Value Operator": "=",
    "pKi": 8.90
  }
]
